Numbers sourced from PubChem BioAssay (NCI).

The entries below are paired with their reported growth inhibition.
- test: NCI Yeast Anticancer Drug Screen. Data for the mlh1 rad18 strain (AID 175)
- conditions: S. cerevisiae mlh1 rad18 strain growth inhibition; at 50.0 µM; active compounds read high
About 79,000 compounds went through this panel and 15% of them were active in at least one assay; those are over-represented in the sample as a whole.
Numeric only. Scale: %

Give reported growth inhibition value for `N#Cc1ccc(Cl)cc1[N+](=O)[O-]` 90.4

Specify measured growth inhibition for `O=[N+]([O-])c1cc(CNCCO)c(O)c2ncccc12` . 98.8

Provide only the value of recorded growth inhibition for O=C(OCCCN1CCCC1)C(c1ccccc1)C1CCCCC1 (stereo not given) 80.2

Note growth inhibition for the molecule shown: CC12CCC(=O)C=C1CCC1C2CCC2(C)C(c3cnc[nH]3)CCC12 (stereo not given) 39.1

Given the molecule O=[N+]([O-])C1(CO)COC(CCc2ccccc2)OC1 (stereo not given) , write its reported growth inhibition. 98.4

Fill in growth inhibition for record `O=C1c2cc(O)ccc2C(=O)c2c1ccc(O)c2O` 98.2

Give the value of growth inhibition reported for the following: `CC(=O)NNc1nc(C)c(C(=O)NNC(=O)C(=O)Nc2ccc(Cl)cc2Cl)s1` 73.9

Indicate its recorded growth inhibition; the molecule in question is O=C(c1ccc(Br)cc1)C1N=NCC1c1ccccc1 (stereo not given) 80.2

---

- test: NCI Yeast Anticancer Drug Screen. Data for the mlh1 rad18 strain (AID 175)
- conditions: S. cerevisiae mlh1 rad18 strain growth inhibition; at 50.0 µM
The panel holds about 79,000 compounds, 15% with a hit somewhere; the sample as a whole holds those more often. Activity calls are given as the source filed them. No stated cut-off is given here; in the data, active means growth inhibition above about 70%; inactive means the rest.
Can you answer with just one of these options? active, inactive

Use the examples below as a reference point.
CC1C/C(=N\N(C)C)C(C#N)(C#N)C1(C#N)C#N (configuration not stated)	active
Cc1ccc(NNC2=NC(=S)NC(=O)C2)cc1	active
CC1CCCN(c2cc(N(C)C)c([N+](=O)[O-])cc2F)C1 (configuration not stated)	inactive

// outcome(item) with item = CC(COC(=O)C(c1ccccc1)C1C=CCCC1)CN1CCCC1 (configuration not stated) active

I would be grateful if you could indicate the recorded call for `O=C(CCl)Oc1ccc(Sc2ccc(OC(=O)CCl)cc2)cc1` . active

What did this assay record as the result for `CNc1ccc2c(c1)Cc1ccccc1-2` ? active

For this molecule, state the assay outcome: `Cc1ccc(S(=O)(=O)OCCc2ccc(Cl)cc2)cc1` inactive

// return assay outcome for `CC(C)OCc1cccc2ccnc(COC(C)C)c12` inactive

Which outcome was assigned to `COc1ccc2c(C)cc(N/N=C(\C)c3ccccn3)nc2c1` in this test? active

Hi team, can someone confirm the assay call for `c1ccc(-c2cc(N3CCCCC3)c(-c3ccccc3)o2)cc1` ? inactive

So what was the verdict on `O=c1ccnc(Nc2ccc[nH]c2=S)[nH]1` in this test? inactive

Hey, what did the test say about `O=c1[nH]c(=O)c2n[nH]nc2[nH]1` ? inactive

---

- test: NCI Yeast Anticancer Drug Screen. Data for the bub3 strain (AID 167)
- conditions: S. cerevisiae bub3 mutant strain, at 5.0 µM (retest, dose inferred, filed as 0.5)
This is part of a sample that, as a whole, favours compounds with a hit. Of some 79,000 tested, about 15% had one in any assay. Calls of active or inactive are those of the source. No stated cut-off is given here; in the data, active means growth inhibition above about 70%; inactive means the rest.
Would you mind answering with one of these outcomes? active, inactive

Worked examples, 2 molecules total:
COc1ccc(NC(=O)CC(=O)n2nc(-c3ccccc3)c(N=Nc3ccc(C)cc3)c2-c2ccccc2)cc1	inactive
CC1(C)OC2OC(/C=C/[N+](=O)[O-])C3OC(C)(C)OC3C2O1 (stereo not drawn)	inactive

Now examine the next entry.
For `O=C1Oc2ccccc2C(=O)/C1=C/N1C(=O)/C(=C/c2ccccc2)NC1=S` , which call appears in the assay record? inactive

---

- test: NCI Yeast Anticancer Drug Screen. Data for the rad50 strain (AID 155);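 also: 0% = growth of vehicle-only cultures of the same strain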
- conditions: S. cerevisiae rad50 strain growth inhibition; at 5.0 µM (retest, dose inferred, filed as 0.5); active compounds read high
Compounds without any hit were thinned out: in the full panel of roughly 79,000, 15% have a hit.
Classify by measured growth inhibition: satisfied if it is equal to or exceeds 20%, not satisfied if it is smaller.

# example entries with known answers
CC1=Nc2ccccc2C1C(Cc1ccccc1N)c1c(C)[nH]c2ccccc12 (stereo unspecified)	not satisfied
CC(=O)O[C@@H]1CC(C)C2CC2C2=C(C(O)OC2O)[C@@H]1C(C)CCC=C(C)C (stereo partly specified)	not satisfied
CC(C)C(Cl)CC/C(CBr)=C(\Cl)CCl (stereo unspecified)	satisfied
O=C1C(=O)C(Br)(c2ccccc2)C(=O)C1c1ccccc1 (stereo unspecified)	not satisfied
O=C(c1ccc(Cl)cc1)c1ccc(OCCCOc2ccc(C(=O)c3ccc(Cl)cc3)cc2)cc1	not satisfied

In the following, a different compound is considered.
Hi team, for `Cc1cc(Cl)c(C(C)C)cc1O` , is the recorded growth inhibition at or above 20%? not satisfied

---

- test: NCI Yeast Anticancer Drug Screen. Data for the rad50 strain (AID 155);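 also: 0% = growth of vehicle-only cultures of the same strain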
- conditions: S. cerevisiae rad50 strain growth inhibition; at 50.0 µM (retest, dose inferred, filed as 5.0); active compounds read high
This is part of a sample that, as a whole, favours compounds with a hit. Of some 79,000 tested, about 15% had one in any assay.
Form field: growth inhibition (one value per entry).
Numbers only; they are read as %.

Please review the entries below; each comes with its answer.
CCC(C)NC(=S)N/N=C(\C)c1ccccn1 (configuration not stated)	100
CCC(=O)Oc1c(Br)c(Br)c(Br)c(Br)c1Br	56
CCOC(=O)Nc1cc2c(cc1Br)-c1ccccc1C2O (configuration not stated)	-3
Cc1c2ccccc2c(=O)n2c(-c3ccccn3)cccc12	-14
OC(CCN1CCOCC1)C1c2ccccc2Cc2ccccc21 (configuration not stated)	74

Consider the additional compound presented here.
Tell me measured growth inhibition for OC1CCC(COC(c2ccccc2)(c2ccccc2)c2ccccc2)O1 (configuration not stated) please. 98

---

- test: NCI Yeast Anticancer Drug Screen. Data for the sgs1 mgt1 strain (AID 161);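 also: 0% = growth of cultures given vehicle only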
- conditions: S. cerevisiae sgs1 mgt1 strain, at 50.0 µM (retest, dose inferred, filed as 5.0)
Compounds without any hit were thinned out: in the full panel of roughly 79,000, 15% have a hit. Activity calls are given as the source filed them. No stated cut-off is given here; in the data, active means growth inhibition above about 70%; inactive means the rest.
Just give me one of these, please: active, inactive

Illustrative cases are given below, each with its answer.
CCCCCCCCCCCCCCCC(=O)N1CC[N+](C)(CC2=CC3(Cl)C(Cl)=C(Cl)C2(Cl)C3(Cl)Cl)CC1 (configuration not stated)	active
CN(C)C(=S)SC1(CN2CCOCC2)COc2c(Cl)cc(Cl)cc2C1=O (configuration not stated)	active

Fill in: this test's call for `COC(=O)/C=N/O` is ___ inactive

Short answer needed: outcome of this test for C/C(CCC1CCc2ccccc2C1)=N\NC(N)=O (configuration not stated) ? inactive

Please state the recorded outcome for this compound: COc1cccc(NC(=S)NC2CC(C)CC(C)(C)C2)c1 (configuration not stated) active

Give the logged outcome of this assay for the following compound: `Cc1nn(C(=O)c2ccncc2)c(C)c1N=Nc1ccccc1[N+](=O)[O-]` active

Dear colleague, could you share the recorded outcome for `C[N+](C)(CCCCCCOc1c(Br)cc(Br)cc1Br)Cc1ccc(Br)o1` when you have a moment? active

GET /call?item= `Cc1cc(Cl)ccc1C(=O)c1ccc2ccccc2c1C(=O)O` returns the recorded outcome of this test. inactive

// return assay outcome for `c1ccc2cc3nc4ccccc4nc3cc2c1` inactive

So what was the verdict on Oc1ccc(C2(c3ccc(O)c(Cl)c3)CC3CCC2C3)cc1Cl (configuration not stated) in this test? active

Check the results log: what was the call for `O=[N+]([O-])c1ccc2c(c1)CCc1ccccc1-2` ? active

# fetch the recorded call for CCCCCCN(CCCCCC)P(=O)(N1CC1C)N1CC1C (configuration not stated) here inactive

---

- test: NCI Yeast Anticancer Drug Screen. Data for the sgs1 mgt1 strain (AID 161);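 also: 0% = growth of cultures given vehicle only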
- conditions: S. cerevisiae sgs1 mgt1 strain, at 50.0 µM (retest, dose inferred, filed as 5.0)
This is part of a sample that, as a whole, favours compounds with a hit. Of some 79,000 tested, about 15% had one in any assay. Activity calls are given as the source filed them. No stated cut-off is given here; in the data, active means growth inhibition above about 70%; inactive means the rest.
Your reply should match one of these outcome classes. label 1 for active, label 0 for inactive

Worked set:
O=C1CC(c2ccccc2)c2c(ccc3ccccc23)O1 (centres undefined)	label 1
C=C(CN(C)C)C(=O)c1ccccc1Cl	label 1
CC(C)OP(=O)(CCCCCCCCC/C=C/c1ccc2c(c1)OCCOCCOCCOCCO2)OC(C)C	label 1
O=C(c1c(F)c(F)c(F)c(F)c1F)n1c(=S)n(C(=O)c2c(F)c(F)c(F)c(F)c2F)c2ccccc21	label 1
COc1ccc(C2=C(Cl)C(=O)N(c3ccc(OC)cc3)C(=O)C2(Cl)Cl)cc1	label 1
CCNc1cc(N)[n+](CC)c2n[nH]c(/N=C/c3cc(Cl)cc(Cl)c3O)c12	label 1

In this assay, the call recorded for `N#Cc1ccc2nc3ccc(N)cc3nc2c1` was what? label 1
